Data provenance: ChEMBL document CHEMBL3751668

- System: Proto-oncogene tyrosine-protein kinase receptor Ret (Homo sapiens), P07949 [V804M]
- Sequence (P07949 whole entry V804M): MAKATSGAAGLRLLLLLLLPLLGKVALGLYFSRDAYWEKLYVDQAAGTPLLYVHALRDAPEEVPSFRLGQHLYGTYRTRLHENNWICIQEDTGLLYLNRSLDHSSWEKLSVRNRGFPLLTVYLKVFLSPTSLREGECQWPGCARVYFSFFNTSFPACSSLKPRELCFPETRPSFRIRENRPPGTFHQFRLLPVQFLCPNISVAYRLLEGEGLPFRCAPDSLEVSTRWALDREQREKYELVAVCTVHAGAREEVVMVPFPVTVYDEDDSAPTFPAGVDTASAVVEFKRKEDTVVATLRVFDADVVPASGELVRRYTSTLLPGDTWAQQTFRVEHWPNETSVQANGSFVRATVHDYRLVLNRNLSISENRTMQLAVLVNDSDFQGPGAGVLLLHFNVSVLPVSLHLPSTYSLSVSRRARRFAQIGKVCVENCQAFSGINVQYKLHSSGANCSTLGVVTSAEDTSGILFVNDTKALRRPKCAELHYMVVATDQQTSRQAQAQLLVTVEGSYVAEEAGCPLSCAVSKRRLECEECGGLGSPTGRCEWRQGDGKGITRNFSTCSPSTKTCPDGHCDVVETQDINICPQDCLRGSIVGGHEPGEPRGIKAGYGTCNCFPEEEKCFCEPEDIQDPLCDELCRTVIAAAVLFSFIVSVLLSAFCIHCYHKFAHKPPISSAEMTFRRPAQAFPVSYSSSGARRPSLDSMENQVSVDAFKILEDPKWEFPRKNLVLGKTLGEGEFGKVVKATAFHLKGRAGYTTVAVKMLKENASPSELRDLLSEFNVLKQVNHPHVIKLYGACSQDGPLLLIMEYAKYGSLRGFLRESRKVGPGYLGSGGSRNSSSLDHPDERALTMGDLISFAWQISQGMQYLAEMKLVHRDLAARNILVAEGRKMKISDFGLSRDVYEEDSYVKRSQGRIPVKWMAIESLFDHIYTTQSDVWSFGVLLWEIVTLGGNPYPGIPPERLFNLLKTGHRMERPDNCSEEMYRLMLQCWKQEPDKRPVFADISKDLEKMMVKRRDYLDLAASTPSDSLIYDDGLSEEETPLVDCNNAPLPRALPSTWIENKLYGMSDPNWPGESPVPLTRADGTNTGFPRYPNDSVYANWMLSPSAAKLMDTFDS
- study.conditions: BaF3
readout.kind: GI50 (µM)

INSERT INTO results (compound, readout_kind, sign, measured_result) VALUES
  ('COc1cc2nccc(Oc3ccc(NC(=O)C4(C(=O)Nc5ccc(F)cc5)CC4)cc3)c2cc1OC [CABOZANTINIB]', 'GI50', '=', 0.89),
  ('Nc1ncnc2[nH]nc(-c3cc(C4CC4)on3)c12', 'GI50', '>', 10),
  ('CC(C)n1nc(C2=NOC(c3ccccc3)C2)c2c(N)ncnc21 (stereo not given)', 'GI50', '>', 10),
  ('CC(C)n1nc(C#Cc2ccccc2)c2c(N)ncnc21', 'GI50', '=', 2.6),
  ('CC(C)n1nc(-c2cc(-c3ccccc3)on2)c2c(N)ncnc21', 'GI50', '=', 4.97);
